assay: pharmacokinetics, plasma concentrations by LC-MS/MS after IV and PO administration; type: in vivo, Kunming mice; conditions: Kunming, mouse, oral gavage (PO), 10 mg/kg
observedProperty: Tmax (h)
Only the number, expressed in h, is required.

What Tmax value was documented for this compound, COc1ccc(C2=NN(C(=O)c3cccc(-c4nnn[nH]4)c3)C(c3cn(-c4ccccc4)nc3-c3ccc(C)cc3)C2)cc1 (stereo not shown) [Compound 14] ? 1

* * *

biological target: CaV2.2 channels in HEK-CaV2.2 cells (Rattus norvegicus); assay: whole cell patch-clamp, CaV2.2 currents in HEK-CaV2.2 cells; details: pretreated 48 hours, current densities, four-parameter logistic fit; read-out: apparent IC50 for inhibition of CaV2.2 currents
Sequence (P54287 whole entry): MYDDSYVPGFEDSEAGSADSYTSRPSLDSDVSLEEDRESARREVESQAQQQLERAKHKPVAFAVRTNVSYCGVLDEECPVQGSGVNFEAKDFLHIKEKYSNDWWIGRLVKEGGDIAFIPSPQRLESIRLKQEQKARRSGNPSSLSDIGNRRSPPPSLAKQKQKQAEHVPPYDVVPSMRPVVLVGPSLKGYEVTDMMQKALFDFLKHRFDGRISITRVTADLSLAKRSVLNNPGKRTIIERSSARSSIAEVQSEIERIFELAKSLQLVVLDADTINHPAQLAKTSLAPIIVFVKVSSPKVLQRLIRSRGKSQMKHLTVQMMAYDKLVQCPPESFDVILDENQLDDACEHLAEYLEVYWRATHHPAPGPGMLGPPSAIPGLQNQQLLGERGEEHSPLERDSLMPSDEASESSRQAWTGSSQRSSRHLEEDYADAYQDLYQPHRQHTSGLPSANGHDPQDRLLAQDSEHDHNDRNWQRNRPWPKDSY
observedProperty: IC50 (µM)
Express your answer in µM, writing the number without its unit.

I am curious: what IC50 value has been reported for COc1ccc(C2=NN(C(=O)c3cccc(-c4nnn[nH]4)c3)C(c3cn(-c4ccccc4)nc3-c3ccc(C)cc3)C2)cc1 (stereo not shown) ? 31

* * *

assay: pharmacokinetics, plasma concentrations by LC-MS/MS after IV and PO administration; format: in vivo, Kunming mice; conditions: Kunming, mouse, IV, 1 mg/kg, read-out: elimination half-life (converted)
observedProperty: half-life
Entry format: amount then unit.

Param item = COc1ccc(C2=NN(C(=O)c3cccc(-c4nnn[nH]4)c3)C(c3cn(-c4ccccc4)nc3-c3ccc(C)cc3)C2)cc1 (stereo not shown) ; retrieve measured half-life. 17.4 min
